- assay_procedure: NCI Yeast Anticancer Drug Screen. Data for the rad50 strain (AID 155);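 also: 0% = growth of vehicle-only cultures of the same strain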
- test_parameters: S. cerevisiae rad50 strain growth inhibition; at 1.2 µM; hits give high values
This is part of a sample that, as a whole, favours compounds with a hit. Of some 79,000 tested, about 15% had one in any assay.
assay_metric: growth inhibition (%)
Reply with just the number (in %).

Examples with answers:
- compound: "CN(C)Cc1cc(N=Nc2ccc(Cl)cc2)cc(CN(C)C)c1O"
  units_text: "%"
  meas_value: 9
- compound: "O=C1OC(CCl)CN1/N=C/c1ccc([N+](=O)[O-])o1 (centres undefined)"
  units_text: "%"
  meas_value: -10
- compound: "COc1cc(C(=O)/C=C/c2ccccc2O)ccc1O"
  units_text: "%"
  meas_value: 10
- compound: "Cc1ccc2ccc(O)cc2c1"
  units_text: "%"
  meas_value: -23
- compound: "C[Si](C)(C)CNC(=O)OCc1ccccc1"
  units_text: "%"
  meas_value: 1

Given item CCCCCCCCCCCC(=O)N(C)C , the value recorded as its growth inhibition is -2

Given item COc1cc(C2C3=C(COC3=O)Oc3cc4c(cc32)OCO4)ccc1O (centres undefined) , the value recorded as its growth inhibition is 0

Given item COc1cc2c(c(OC)c1OC)-c1c(cc3c(c1OC)OCO3)CC(C)C(C)(O)C2OC(=O)c1ccccc1 (centres undefined) , the value recorded as its growth inhibition is -53

Given item O=[N+]([O-])c1ccc2nc3ccccc3cc2c1 , the value recorded as its growth inhibition is 1

Given item CCOC(=O)c1cc(-c2ccc(Cl)cc2)c([N+](=O)[O-])n1C , the value recorded as its growth inhibition is 9
